# method notes: Hematology assays in cynomolgus monkeys (Example 46)
# Type: in vivo
# measurement parameters: Day 31
Strand notation (5' to 3'): a small letter for the sugar, then the base; units joined by * are phosphorothioate-linked, units joined directly phosphodiester-linked; [ ] holds rarer units or linkages, { } end groups; capitals alone tell only the bases. e = 2'-O-(2-methoxyethyl) (MOE); [5mC] = 5-methylcytosine; d = 2'-deoxy (DNA)
quantity: MCHC (g/dL)
Hi! Could you send only the number? It should be in g/dL, unit omitted.

A selection of reference data follows.
substance="ISIS 416858: MOE gapmer, nucleobases 1275 to 1318 of SEQ ID NO: 1 (Table 8) (antisense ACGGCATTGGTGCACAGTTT; MOE gapmer, wing and gap sizes not given here)" quantity=MCHC unit_of_measure=g/dL recorded_measurement=31.0
substance="ISIS 445522: 5-8-5 or 6-8-6 MOE microwalk gapmer (Table 44) (antisense eG*e[5mC]*eA*e[5mC]*eA*dG*dT*dT*dT*d[5mC]*dT*dG*dG*e[5mC]*eA*eG*eG*e[5mC])" quantity=MCHC unit_of_measure=g/dL recorded_measurement=30.0

Let us move to another entry and its MCHC.
stdin: Which MCHC value is on record for ISIS 449708: 3-8-3, 4-8-4, 2-10-2, 3-10-3 or 4-10-4 MOE microwalk gapmer (Table 46) (antisense eA*e[5mC]*eA*dG*dT*dT*dT*d[5mC]*dT*dG*dG*e[5mC]*eA*eG) ?
stdout: 29.9

###

# Tested on: human Factor 11 mRNA
# method notes: Dose-dependent inhibition of human Factor 11 in HepG2 cells, lipofectin 9.375-75 nM (Example 4)
# Type: cell-based
# measurement parameters: 18.75 nM, relative to untreated control cells
Strand notation (5' to 3'): a small letter for the sugar, then the base; units joined by * are phosphorothioate-linked, units joined directly phosphodiester-linked; [ ] holds rarer units or linkages, { } end groups; capitals alone tell only the bases. e = 2'-O-(2-methoxyethyl) (MOE); [5mC] = 5-methylcytosine; d = 2'-deoxy (DNA)
Quick rule: percent inhibition of Factor 11 at 18.75 nM of at least 40% means Met, below that means Not met.

Before answering, review these 3 worked examples.
substance="416858 (antisense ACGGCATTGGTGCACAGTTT; 5-10-5 gapmer, further chemistry not given here) [compound 416858]" class_name="Not met"
substance="412206 (antisense e[5mC]*e[5mC]*eG*eT*eG*d[5mC]*dA*dT*d[5mC]*dT*dT*dT*d[5mC]*dT*dT*eG*eG*e[5mC]*eA*eT) [compound 412206]" class_name=Met
substance="416999 (antisense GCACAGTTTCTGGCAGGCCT; 2-13-5 gapmer chemistry, further chemistry not given here) [compound 416999]" class_name="Not met"

stdin: Can 413476 (antisense eT*eT*eG*eA*eG*dA*dT*dT*d[5mC]*dT*dT*dT*dG*dG*dG*e[5mC]*e[5mC]*eA*eT*eT) [compound 413476] be said to have percent inhibition of Factor 11 at 18.75 nM at or above 40%?
stdout: Met

stdin: Similarly, 416941 (antisense eG*eG*e[5mC]*dA*dG*d[5mC]*dG*dG*dA*d[5mC]*dG*dG*d[5mC]*dA*dT*dT*dG*eG*eT*eG) [compound 416941] ?
stdout: Met

stdin: Try this substance next: 416842 (antisense eT*eG*eA*eG*eA*dT*dT*d[5mC]*dT*dT*dT*dG*dG*dG*d[5mC]*e[5mC]*eA*eT*eT*e[5mC]) [compound 416842]
stdout: Not met

stdin: 416878 (antisense eG*eG*eT*d[5mC]*d[5mC]*dA*d[5mC]*dA*dT*dA*dA*dA*dT*dG*dT*d[5mC]*dT*eT*eT*eG) [compound 416878] ?
stdout: Not met

stdin: Moving on to 416850 (antisense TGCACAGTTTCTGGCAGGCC; 5-10-5 gapmer, further chemistry not given here) [compound 416850]
stdout: Not met

stdin: Also 416926 (antisense eT*eG*eG*dT*dG*d[5mC]*dA*d[5mC]*dA*dG*dT*dT*dT*d[5mC]*dT*dG*dG*e[5mC]*eA*eG) [compound 416926] ?
stdout: Met

stdin: And the next one, 416895 (antisense eT*eA*eT*dG*d[5mC]*d[5mC]*d[5mC]*dT*dT*d[5mC]*dA*dT*dG*dT*d[5mC]*dT*dA*eG*eG*eT) [compound 416895] ?
stdout: Met

stdin: Try this substance next: 416985 (antisense eG*e[5mC]*dA*dA*d[5mC]*d[5mC]*dG*dG*dG*dA*dT*dG*dA*dT*dG*eA*eG*eT*eG*e[5mC]) [compound 416985]
stdout: Not met

stdin: Cool, now 416922 (antisense eG*e[5mC]*eA*d[5mC]*dA*dG*dT*dT*dT*d[5mC]*dT*dG*dG*d[5mC]*dA*dG*dG*e[5mC]*e[5mC]*eT) [compound 416922]
stdout: Not met

stdin: Proceed to 416923 (antisense eT*eG*e[5mC]*dA*d[5mC]*dA*dG*dT*dT*dT*d[5mC]*dT*dG*dG*d[5mC]*dA*dG*eG*e[5mC]*e[5mC]) [compound 416923]
stdout: Met

stdin: Try this substance next: 416945 (antisense eA*eA*dT*dG*dT*d[5mC]*dT*dT*dT*dG*dT*dT*dG*d[5mC]*dA*eA*eG*e[5mC]*eG*e[5mC]) [compound 416945]
stdout: Met

stdin: Consider next the substance 417000 (antisense eT*eG*d[5mC]*dA*d[5mC]*dA*dG*dT*dT*dT*d[5mC]*dT*dG*dG*d[5mC]*eA*eG*eG*e[5mC]*e[5mC]) [compound 417000] in the same way.
stdout: Met

stdin: How about 416892 (antisense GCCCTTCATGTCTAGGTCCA; 3-14-3 chimeric gapmer, further chemistry not given here) [compound 416892] ?
stdout: Met

stdin: Further, for 416827 (antisense eT*eA*eT*eG*e[5mC]*d[5mC]*d[5mC]*dT*dT*d[5mC]*dA*dT*dG*dT*d[5mC]*eT*eA*eG*eG*eT) [compound 416827] ?
stdout: Met

stdin: Same thing, different substance: 416856 (antisense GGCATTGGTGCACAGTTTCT; 5-10-5 gapmer, further chemistry not given here) [compound 416856]
stdout: Met

stdin: Try the substance 416826 (antisense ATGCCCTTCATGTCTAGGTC; 5-10-5 gapmer, further chemistry not given here) [compound 416826]
stdout: Not met

###

Each record here notes measured MIP-1α level.
# Test system: IL-1β, IL-6, IFN-γ, TNF-α, IL-8, MIP-1α, MCP-1, MIP-1β, RANTES
# method notes: Cytokine and chemokine assays in cynomolgus monkeys (Example 46)
# Format: in vivo
# measurement parameters: day-14 (before start of treatment)
Strand notation (5' to 3'): a small letter for the sugar, then the base; units joined by * are phosphorothioate-linked, units joined directly phosphodiester-linked; [ ] holds rarer units or linkages, { } end groups; capitals alone tell only the bases. e = 2'-O-(2-methoxyethyl) (MOE); [5mC] = 5-methylcytosine; d = 2'-deoxy (DNA)
Please give a number only; it is taken to be in pg/mL.

stdin: IL-1β, IL-6, IFN-γ, TNF-α, IL-8, MIP-1α, MCP-1, MIP-1β, RANTES / MIP-1α level / ISIS 449707: 3-8-3, 4-8-4, 2-10-2, 3-10-3 or 4-10-4 MOE microwalk gapmer (Table 46) (antisense e[5mC]*eA*e[5mC]*eA*dG*dT*dT*dT*d[5mC]*dT*dG*dG*e[5mC]*eA*eG*eG) : value?
stdout: 16

stdin: Query ISIS 445531: 5-8-5 or 6-8-6 MOE microwalk gapmer (Table 44) (antisense eG*eG*e[5mC]*eA*eT*dT*dG*dG*dT*dG*d[5mC]*dA*d[5mC]*eA*eG*eT*eT*eT) next
stdout: 25

stdin: Consider next the substance ISIS 449710: 3-8-3, 4-8-4, 2-10-2, 3-10-3 or 4-10-4 MOE microwalk gapmer (Table 46) (antisense e[5mC]*eA*e[5mC]*dA*dG*dT*dT*dT*d[5mC]*dT*dG*dG*d[5mC]*eA*eG*eG) in the same way.
stdout: 20

stdin: Consider next the substance ISIS 445522: 5-8-5 or 6-8-6 MOE microwalk gapmer (Table 44) (antisense eG*e[5mC]*eA*e[5mC]*eA*dG*dT*dT*dT*d[5mC]*dT*dG*dG*e[5mC]*eA*eG*eG*e[5mC]) in the same way.
stdout: 22

stdin: Now give it for ISIS 449709: 3-8-3, 4-8-4, 2-10-2, 3-10-3 or 4-10-4 MOE microwalk gapmer (Table 46) (antisense eG*e[5mC]*eA*e[5mC]*dA*dG*dT*dT*dT*d[5mC]*dT*dG*dG*d[5mC]*eA*eG*eG*e[5mC]) too.
stdout: 13

stdin: Try this substance too: ISIS 416850: MOE gapmer, nucleobases 1275 to 1318 of SEQ ID NO: 1 (Table 8) (antisense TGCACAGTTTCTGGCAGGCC; MOE gapmer, wing and gap sizes not given here)
stdout: 14

stdin: Could you do the same for ISIS 449708: 3-8-3, 4-8-4, 2-10-2, 3-10-3 or 4-10-4 MOE microwalk gapmer (Table 46) (antisense eA*e[5mC]*eA*dG*dT*dT*dT*d[5mC]*dT*dG*dG*e[5mC]*eA*eG) , please?
stdout: 11

stdin: And ISIS 416858: MOE gapmer, nucleobases 1275 to 1318 of SEQ ID NO: 1 (Table 8) (antisense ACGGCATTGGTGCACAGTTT; MOE gapmer, wing and gap sizes not given here) ?
stdout: 11

stdin: Now try ISIS 449711: 3-8-3, 4-8-4, 2-10-2, 3-10-3 or 4-10-4 MOE microwalk gapmer (Table 46) (antisense eA*e[5mC]*dA*dG*dT*dT*dT*d[5mC]*dT*dG*dG*d[5mC]*eA*eG) .
stdout: 20
